Consider the following molecules; for each one, report its cytotoxicity at 70.5 h.
assay: Human HepG2 cell viability assay in 384 well format; format: toxicity, cell-based; set-up: dose 125 nL, time 70.5 hour; concentration not given beside the values; conditions: HepG2 cells, read-out: Inhibition
Numbers only, in %.

Please review the entries below; each comes with its answer.
Recall and state the measured cytotoxicity at 70.5 h for CCO[C@@H]1CN(Cc2scnc2C)[C@@H]2CCCO[C@@H]21 .
-10.5

Recall and state the measured cytotoxicity at 70.5 h for Cc1noc(CCNC(=O)c2ccc(N(C)C)c(F)c2)n1 .
-3.5

Recall and state the measured cytotoxicity at 70.5 h for Cc1ccc(S(=O)(=O)N2CSCC2C(=O)NCC(F)(F)F)cc1C (stereo not drawn) .
-3.59

Recall and state the measured cytotoxicity at 70.5 h for CNS(=O)(=O)c1ccccc1N1CCN(C(C)C(N)=O)CC1 (stereo not drawn) .
-3.93

Recall and state the measured cytotoxicity at 70.5 h for Cc1cn(-c2ccccc2)nc1NS(=O)(=O)c1ccc(C(=O)O)cc1 .
10.8

Working through the 8 molecules below one at a time, give cytotoxicity at 70.5 h for each.
1. CCNc1cc2c(nn1)CCN(C(=O)C1CCc3ccccc31)C2 (stereo not drawn)
2. CC(=O)N1CCC2(CC1)COCCN2CCN(C)C
3. CCS(=O)(=O)CCNC(=O)NC(C)c1cc(C)sc1C (stereo not drawn)
4. O=C1CCc2cc(S(=O)(=O)NCc3cc4n(n3)CCNC4)ccc2N1
5. CC(C)CN1C[C@H]2C[C@H](C(=O)Nc3cccnc3)[C@@H](C1)O2
6. CC(C)CCNC(=O)c1ccc2c(=O)n(-c3ccccc3)cnc2c1
7. Oc1ccc(N2CCC(Cc3ccccc3)CC2)nn1
8. CCN(C)c1ncnc2c1CCN(Cc1ccncc1)CC2

-0.738
-10.7
-15.4
-16.4
-4.05
-25.3
-4.56
-0.527

Working through the 5 molecules below one at a time, give cytotoxicity at 70.5 h for each.
1. Cc1cc(O)c(OCC(=O)/N=c2\[nH]cc(C)s2)cn1
2. CCc1ccc(C(=O)NCC2CCCN2CC)o1 (stereo not drawn)
3. O=C(Nc1c(F)cccc1Oc1ccccc1)C1CCS(=O)(=O)C1 (stereo not drawn)
4. O=C1NCCCCC1Sc1nnc(N2CCCC2)n1C1CC1 (stereo not drawn)
5. NC(=O)NC(=O)CNc1cccc(C(=O)c2ccccc2)c1

1: -21; 2: -3.5; 3: -1.02; 4: 6.7; 5: 13.6
